Attribution: paper PMC9304124

assay: Steady-state plasma PK of NE and EE, NE/EE given alone or with trametinib (phase 1 DDI study); settings: female, human, plasma, oral, t½, median (range), NE/EE alone, day 5, plasma

>  <Record Smiles>
C#C[C@]1(O)CC[C@H]2[C@@H]3CCC4=CC(=O)CC[C@@H]4[C@H]3CC[C@@]21C

>  <half-life, h>
9.22

$$$$

---

experiment: Steady-state plasma PK of NE and EE, NE/EE given alone or with trametinib (phase 1 DDI study); conditions: female, human, plasma, oral, AUCtau, adjusted geo‐mean, NE/EE + T; linear mixed-effects model

>  <Molecule>
C#C[C@]1(O)CC[C@H]2[C@@H]3CCC4=CC(=O)CC[C@@H]4[C@H]3CC[C@@]21C [NE, norethindrone]

>  <AUC>
131 ng·h/mL

$$$$
>  <Molecule>
C#C[C@]1(O)CC[C@H]2[C@@H]3CCc4cc(O)ccc4[C@H]3CC[C@@]21C [EE, ethinyl estradiol]

>  <AUC>
1.12 ng·h/mL

$$$$

---

test: Steady-state plasma PK of NE and EE, NE/EE given alone or with trametinib (phase 1 DDI study); settings: female, human, plasma, oral, AUClast, geo‐mean (geo‐CV%), NE/EE alone, day 5, plasma
Observable: AUC(0-t) (ng·h/mL)

>  <Record Smiles>
C#C[C@]1(O)CC[C@H]2[C@@H]3CCc4cc(O)ccc4[C@H]3CC[C@@]21C

>  <Observable>
AUC(0-t)

>  <Unit Of Measure>
ng·h/mL

>  <Quantitative Readout>
0.983

$$$$

---

test: clinical; conditions: female, human, plasma, oral

>  <Record Smiles>
C#C[C@]1(O)CC[C@H]2[C@@H]3CCC4=CC(=O)CC[C@@H]4[C@H]3CC[C@@]21C

>  <Tmax [h]>
1.02

$$$$

---

As shown below, each of these compounds has a reported AUC(0-t) value.
experiment: Steady-state plasma PK of NE and EE, NE/EE given alone or with trametinib (phase 1 DDI study); settings: female, human, plasma, oral, AUClast, adjusted geo‐mean, NE/EE + T; linear mixed-effects model

>  <Compound>
C#C[C@]1(O)CC[C@H]2[C@@H]3CCC4=CC(=O)CC[C@@H]4[C@H]3CC[C@@]21C [NE, norethindrone]

>  <Unit Of Measure>
ng·h/mL

>  <AUC(0-t)>
127

$$$$
>  <Compound>
C#C[C@]1(O)CC[C@H]2[C@@H]3CCc4cc(O)ccc4[C@H]3CC[C@@]21C [EE, ethinyl estradiol]

>  <Unit Of Measure>
ng·h/mL

>  <AUC(0-t)>
1.07

$$$$

---

test: Steady-state plasma PK of NE and EE, NE/EE given alone or with trametinib (phase 1 DDI study); conditions: female, human, plasma, oral, Cmax, mean (SD), NE/EE alone, day 5, plasma

>  <Record Smiles>
C#C[C@]1(O)CC[C@H]2[C@@H]3CCc4cc(O)ccc4[C@H]3CC[C@@]21C

>  <Unit Of Measure>
ng/mL

>  <Cmax>
0.151

$$$$

---

assay: Steady-state plasma PK of NE and EE, NE/EE given alone or with trametinib (phase 1 DDI study); conditions: female, human, plasma, oral, tmax, median (range), NE/EE alone, day 5, plasma
Observable: Tmax (min)

>  <Record Smiles>
C#C[C@]1(O)CC[C@H]2[C@@H]3CCc4cc(O)ccc4[C@H]3CC[C@@]21C

>  <Unit Of Measure>
min

>  <Quantitative Readout>
58.8

$$$$

---

test: Steady-state plasma PK of NE and EE, NE/EE given alone or with trametinib (phase 1 DDI study); conditions: female, human, plasma, oral, AUCtau, adjusted geo‐mean, NE/EE alone; linear mixed-effects model

>  <Record Smiles>
C#C[C@]1(O)CC[C@H]2[C@@H]3CCC4=CC(=O)CC[C@@H]4[C@H]3CC[C@@]21C

>  <AUC>
110 ng·h/mL

$$$$
